Sorting guide: entries reporting melting point beneath 100 °C go in the Condition met pile, the rest go in the Condition not met pile.

Worked examples, 4 molecules total:
{"columns": ["MOLECULE", "ANSWER_LABEL"],
 "data": [
  ["CC(=O)C(=O)O", "Condition met"],
  ["CC[C@H](CC[C@@H](C)[C@H]1CC[C@H]2C3=CC=C4C[C@@H](O)CC[C@]4(C)[C@H]3CC[C@]12C)C(C)C", "Condition not met"],
  ["COc1cc(C=O)ccc1O[C@@H]1O[C@H](CO)[C@@H](O)[C@H](O)[C@H]1O", "Condition not met"],
  ["c1ccc(N=Nc2ccc(Nc3ccccc3)cc2)cc1", "Condition met"]
]}

Proceed to the following item.
State whether 100 °C exceeds melting point recorded for Cc1ccc(SSc2ccc(C)cc2)cc1 . Condition met
